- experimental.details: Cytotoxicity against human HepG2 cells assessed as cell viability at 16 ug/ml measured by SRB assay
- Format: toxicity, cell-based
- measurement.conditions: at 16 µg/mL, read-out: Activity
experimental.readout: viability at 16 ug/ml (%)
Numbers only, in %.

Qu. What value of viability at 16 ug/ml has been recorded for this entry: C=CCc1ccc(OCCC[N+](C)(C)CCCCCC)c(-c2ccc(OCCC[N+](C)(C)CCCCCC)c(CC=C)c2)c1.[Br-].[Br-]
Ans. 85.4

###

- System: Staphylococcus aureus
- experimental.details: Antibacterial activity against Staphylococcus aureus ATCC 31007
- Format: functional
experimental.readout: MIC (µg/mL)
Give bare numbers, in µg/mL.

Example entries and their recorded answers appear below.
{"compound": "C=CCc1ccc(OCC(=O)NCCN)c(-c2ccc(OCC(=O)NCCN)c(CC=C)c2)c1.O=C(O)C(F)(F)F.O=C(O)C(F)(F)F", "experimental.readout": "MIC", "endpoint.unit": "µg/mL", "reported": 32}
{"compound": "C=CCc1ccc(OCC(=O)NC(CCCCN)C(=O)NCC23CC4CC(CC(C4)C2)C3)c(-c2ccc(OCC(=O)NC(CCCCN)C(=O)NCC34CC5CC(CC(C5)C3)C4)c(CC=C)c2)c1.O=C(O)C(F)(F)F.O=C(O)C(F)(F)F (centres undefined)", "experimental.readout": "MIC", "endpoint.unit": "µg/mL", "reported": 4}
{"compound": "C=CCc1ccc(OCC(=O)NCCCN)c(-c2ccc(OCC(=O)NCCCN)c(CC=C)c2)c1.O=C(O)C(F)(F)F.O=C(O)C(F)(F)F", "experimental.readout": "MIC", "endpoint.unit": "µg/mL", "reported": 64}

Qu. What value of MIC has been recorded for this entry: C=CCc1ccc(OCCC[N+](C)(C)CCCCCCCCCCCCCC)c(-c2ccc(OCCC[N+](C)(C)CCCCCCCCCCCCCC)c(CC=C)c2)c1.[Br-].[Br-]
Ans. 128

###

- experimental.details: Cytotoxicity against human HepG2 cells assessed as cell viability at 8 ug/ml measured by SRB assay
- Assay type: toxicity, cell-based
- measurement.conditions: at 8 µg/mL, read-out: Activity
experimental.readout: viability at 8 ug/ml (%)
One number for each entry, in %.

Qu. What value of viability at 8 ug/ml has been recorded for this entry: C=CCc1ccc(OCCC[N+](C)(C)CCCCCC)c(-c2ccc(OCCC[N+](C)(C)CCCCCC)c(CC=C)c2)c1.[Br-].[Br-]
Ans. 90.3

###

- System: Escherichia coli
- experimental.details: Antibacterial activity against Escherichia coli ATCC 25922
- Format: functional
experimental.readout: MIC (µg/mL)
One number for each entry, in µg/mL.

{"compound": "C=CCc1ccc(OCC(=O)NC(CCCCN)C(=O)NCCCCCCCCCC)c(-c2ccc(OCC(=O)NC(CCCCN)C(=O)NCCCCCCCCCC)c(CC=C)c2)c1.O=C(O)C(F)(F)F.O=C(O)C(F)(F)F (centres undefined)", "system.tested": "Escherichia coli", "experimental.readout": "MIC", "reported": 16}

Qu. Recorded MIC for C=CCc1ccc(OCC(=O)NCCC[N+](C)(C)C)c(-c2ccc(OCC(=O)NCCC[N+](C)(C)C)c(CC=C)c2)c1.[I-].[I-] with Escherichia coli, please?
Ans. 16
